System: Bacillus subtilis
Test summary: cleaved RNA product abundance (RNA/gDNA barcode ratio) relative to median wild-type variant (ratio to wild type); higher = more accumulation of the downstream cleavage product
Condition set: experiment (reporter, strain, medium): exp 8a: truncated aprE reporter, strain BJT201 with 2% xylose (RNase J1 expressed); cleavage site: glnRA (positions -5 to +31 mutated)
Quantity kind: cleaved RNA product abundance
No unit in the answer, only the number.

Consider the sequence shown here: CGACATGTCCCGCTTCTTTCATTAATCCGTTAGCAACTGTTCTGCAATATACATTTACCTTTTAAGAGGAGGAAT What is its recorded cleaved RNA product abundance?
0.103

Consider the sequence shown here: CGACATGTCCCGCTTCTTTCATTAATCCGTTCACAACTGTTTTGCTATATACATTTACCTTTTAAGAGGAGGAAT What is its recorded cleaved RNA product abundance?
0.224

Consider the sequence shown here: CGACATGTCCCGCTTCTTTCATTAATCCGTTAGTAATTGTTTTGCTATATACATTTACCTTTTAAGAGGAGGAAT What is its recorded cleaved RNA product abundance?
0.362

Consider the sequence shown here: CGACATGTCCCGCTTCTTTCATTAATCCGTTAGCAACTGTTTTGCTATATACACTTAACTTTTAAGAGGAGGAAT What is its recorded cleaved RNA product abundance?
0.785

Consider the sequence shown here: CGACATGTCCCGCTTCTTTCATTACTCCGTTAGCAACTGTTTTGCTATATACATCTACCTTTTAAGAGGAGGAAT What is its recorded cleaved RNA product abundance?
0.75

Consider the sequence shown here: CGACATGTCCCGCTTCTTTCATTACTCCGTTAGCAACTGTTTTGCTATATGCATTTACCTTTTAAGAGGAGGAAT What is its recorded cleaved RNA product abundance?
0.234

Consider the sequence shown here: CGACATGTCCCGCTTCTTTCATTAATCCGTTAGCAACTGTTTTACTATATACATATACCTTTTAAGAGGAGGAAT What is its recorded cleaved RNA product abundance?
1.11
